Measured values drawn from PubChem BioAssay for this set.

Kindly state composite z-score for each of the entries shown.
- TESTED_TARGET: E3 ubiquitin-protein ligase XIAP (Homo sapiens) (UniProt P98170)
- Sequence (P98170 whole entry, looked up): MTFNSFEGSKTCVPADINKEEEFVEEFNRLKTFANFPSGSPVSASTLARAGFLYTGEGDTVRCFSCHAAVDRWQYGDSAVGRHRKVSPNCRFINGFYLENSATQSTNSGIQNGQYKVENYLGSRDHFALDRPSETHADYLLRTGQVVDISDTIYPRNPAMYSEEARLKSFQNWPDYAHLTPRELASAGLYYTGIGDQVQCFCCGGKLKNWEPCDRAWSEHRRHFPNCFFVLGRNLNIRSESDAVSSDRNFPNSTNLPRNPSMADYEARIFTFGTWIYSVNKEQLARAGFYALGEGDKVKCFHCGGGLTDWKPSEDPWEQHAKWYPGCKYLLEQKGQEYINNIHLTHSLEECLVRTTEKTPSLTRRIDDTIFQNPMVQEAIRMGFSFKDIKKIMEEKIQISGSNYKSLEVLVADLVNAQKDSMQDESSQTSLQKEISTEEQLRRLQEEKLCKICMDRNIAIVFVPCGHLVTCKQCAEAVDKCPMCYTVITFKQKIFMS
- ASSAY_PROTOCOL: XIAP binders, primary screen, biophysical, small-molecule microarray, fluorescence 635 nm (AID 1181);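 also: score merges 667 nm emission and signal to noise over triplicate slides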
- RECORDED_CONDITIONS: small-molecule microarray binding, higher = more signal

Reported composite z-score for CCOC(=O)C1=C(C(=O)OCC)N(S(=O)(=O)CC[Si](C)(C)C)[C@H](c2ccccc2)CC1 was -0.127

Reported composite z-score for [N-]=[N+]=NCc1ccccc1C[C@]1(C(=O)O)COC(c2ccc(OCCCO)cc2)=N1 was -0.445

Reported composite z-score for CC(C)(C)OC(=O)CC[C@]1(C(N)=O)N=C(c2ccc(OCCCO)cc2)O[C@H]1c1ccccc1CN=[N+]=[N-] was 0.108

Reported composite z-score for COC(=O)[C@@H]1N=C(c2ccc(OCCCO)cc2)O[C@@H]1c1ccccc1CN=[N+]=[N-] was 0.279

Reported composite z-score for CCOC(=O)C1=CC[C@@H](c2ccc(F)cc2)N(S(=O)(=O)c2ccc(C)cc2)[C@H]1c1ccc([N+](=O)[O-])cc1 was 0.0077

Reported composite z-score for C=CCNC(=O)[C@H]1[C@@H]2C(=O)O[C@@H](c3ccccc3)[C@@H](c3ccccc3)N2[C@@H](c2ccccc2OCCO)[C@]12C(=O)N(C(=O)OCCOC)c1ccccc12 was 0.0797

Reported composite z-score for COC(=O)[C@@]1(Cc2ccc(OC)cc2)[C@H]2c3cc(C(=O)N(C)C)n(Cc4ccsc4Br)c3C[C@H]2CN1C(=O)c1ccccc1 was 0.452

Reported composite z-score for C=C(/C(=C/C[C@@H](OC(C)=O)c1ccccc1OCCO)c1cc(C(=O)OC)ccc1OC)C(C)C was -0.323

====

- ASSAY_PROTOCOL: E. coli growth modulation, two-sided OD650, primary screen, E. coli filamentation project, strain DRC41, 24 h (AID 1093);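 also: MC1000 strain lacking acrAB efflux and sulA so SOS filamentation is blocked; test concentration not given here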
- RECORDED_CONDITIONS: OD650, 24 h, higher = more signal, called active from +8 up or from −8 down
MEASUREMENT_LABEL: z-score
# output: bare number, no unit

Reported z-score for C=CC[C@]1(C(=O)NCc2ccccc2)COC(c2ccc(OCCCO)cc2)=N1 was 1.34

Reported z-score for NCCCC[C@@H]1NC(=O)[C@H]2C[C@@H](C(=O)NCc3ccc(F)cc3)[C@@H](c3cccc(OCCO)c3)N2C1=O was -0.765

Reported z-score for O=C1NC(=O)C2C1C=CC(C(O)c1ccc(F)cc1)N2Nc1ccccn1 (centres undefined) was -1.83

Reported z-score for Cc1ccc(S[C@]2(C(=O)NCC(F)(F)F)CC(=O)N(C3CCCCC3)[C@@H]2c2ccc(CO)cc2)cc1 was 0.471

Reported z-score for Cc1c(NC(=O)/C(C#N)=C/c2ccc(Cl)cc2)c(=O)n(-c2ccccc2)n1C was -0.155

Reported z-score for CCCCCCc1nc(-c2ccc(OC)nc2)cc2c1[Si](C(C)C)(C(C)C)OC2 was -0.647

Reported z-score for COCCCNC(=O)[C@@]1(Sc2ccc(C)cc2)CC(=O)N(C2CCCCC2)[C@@H]1c1ccc(CO)cc1I was 0.331

Reported z-score for CC=CC(O)C1C=CC2C(=O)N(C)C(=O)C2N1NC(=O)OC(C)(C)C (centres undefined) was -1.13

Reported z-score for CC(c1ccccc1)C(O)C1C=CC2C(=O)N(c3ccccc3)C(=O)C2N1Nc1ccc(C#N)cc1 (centres undefined) was 0.939

====

Kindly state z-score for each of the entries shown.
- ASSAY_PROTOCOL: osmotic lysis modulators in infected erythrocytes, primary screen, PSAC antagonist project, cell-based, P. falciparum Indochina, OD700, 3 h (AID 1156)
- RECORDED_CONDITIONS: higher = more signal, called active from +8 up or from −8 down
# output: bare number, no unit

Reported z-score for CCC[C@@H]1C=C(C(=O)OCC)[C@H](c2ccccc2)N1S(=O)(=O)c1ccc(C)cc1 was -0.628

Reported z-score for COc1ccccc1CN1C(=O)c2ccccc2[C@](Cc2ccccc2I)(C(=O)NCCCN(C)C)[C@@H]1c1ccc(CO)cc1 was -5.31

Reported z-score for C#CCN(C/C=C/c1ccccc1)[C@H](CO[Si](C)(C)C(C)(C)C)c1ccccc1 was 1.05

Reported z-score for [N-]=[N+]=NCc1ccccc1C[C@]1(C(=O)N2CCCCC2)N=C(c2ccc(OCCCO)cc2)O[C@H]1c1ccccc1 was 3.48

====

- ASSAY_PROTOCOL: basal RPMI8226 mitochondrial membrane potential changes, profiling panel, cell-based, JC-1 fluorescence, 24 h, 100 nL compound (AID 1169); also: test concentration not given here
- RECORDED_CONDITIONS: RPMI8226 myeloma, JC-1 mitochondrial potential fluorescence, higher = more signal
Returns Yes if the recorded z-score is greater than or equal to -0.4, and No otherwise.

Ask: Identify whether the reported z-score of the following molecule is -0.4 or greater: Cc1ccc(S[C@]2(C(=O)NCC(F)(F)F)CC(=O)N(C3CCCCC3)[C@@H]2c2ccc(CO)cc2)cc1
Reply: Yes

Ask: Identify whether the reported z-score of the following molecule is -0.4 or greater: COc1ccc(NN2C(C(O)c3ccc(OC)cc3)C=CC3C(=O)N(C4CCCCC4)C(=O)C32)cc1 (configuration not stated)
Reply: Yes

Ask: Identify whether the reported z-score of the following molecule is -0.4 or greater: NC(=O)[C@@]1(CCS(=O)(=O)c2ccccc2)COC(c2ccc(OCCCO)cc2)=N1
Reply: No

Ask: Identify whether the reported z-score of the following molecule is -0.4 or greater: O=C1C2C=CC(C(O)c3cccs3)N(Nc3ccccc3)C2C(=O)N1c1ccccc1 (configuration not stated)
Reply: Yes

Ask: Identify whether the reported z-score of the following molecule is -0.4 or greater: CCOC(=O)C[C@H]1[C@H](OC(=O)c2ccc(C(=O)c3ccccc3)cc2)[C@@H](NC(=O)c2ccc3ccccc3c2)c2cc(OCCCO)ccc2N1C(=O)c1ccc2ccccc2n1
Reply: Yes

Ask: Identify whether the reported z-score of the following molecule is -0.4 or greater: C=CCOC(=O)[C@@H]1[C@H]2C(=O)O[C@H](c3ccccc3)[C@H](c3ccccc3)N2[C@H](c2ccc(OCCOC(=O)[C@H]3C[C@H]4C(=O)NCC(=O)N4[C@H]3c3ccc(O)cc3)cc2)[C@@]12C(=O)Nc1ccc(I)cc12
Reply: No

Ask: Identify whether the reported z-score of the following molecule is -0.4 or greater: CC(C)=CCN(C(=O)C#Cc1ccccc1)[C@H](CO)c1ccccc1
Reply: No

====

- System: Lefty1
- ASSAY_PROTOCOL: Lefty1 binders on small-molecule microarrays, primary screen, biochemical, small-molecule microarray, 635/667 nm fluorescence (AID 1139)
- RECORDED_CONDITIONS: small-molecule microarray binding, fluorescence 635/667; higher = more signal
MEASUREMENT_LABEL: composite z-score
# output: bare number, no unit

Reported composite z-score for COCCOC(=O)N1C(=O)[C@@]2(c3cc(C#CC4(O)CCCCCC4)ccc31)[C@H](c1ccccc1OCCO)N1[C@H](c3ccccc3)[C@H](c3ccccc3)OC(=O)[C@H]1[C@@H]2C(=O)N1CCCCCCC1 was 1.37

Reported composite z-score for C=CCC(OC(C)=O)[C@@H]1[C@@H](N(Cc2ccc(-c3ccccc3)cc2)C(=O)c2ccc(-c3ccccc3)cc2)c2cc(OCCCO)ccc2N1C(=O)c1ccc2ccccc2n1 (stereo partly specified) was -0.101

Reported composite z-score for CCCCCN1CC=CC23O[C@@H]4C=CCOC(=O)[C@@H]4[C@H]2C(=O)N(CCCCCO)[C@@H]3C1=O (stereo partly specified) was 0.604

Reported composite z-score for COc1cc2c(cc1O)C(c1ccc(CN3CCCC3)cc1)N(Cc1cccc(OC(F)(F)F)c1)CC2 (stereo unspecified) was 0.242

Reported composite z-score for CC(C)C[C@H]1NC(=O)[C@@H](C)NC(=O)[C@@]23C(=O)N[C@@H](Cc4ccccc4)C2[C@H](C)[C@@]2(C)O[C@H]2C3/C=C/C/C=C\CNC1=O (stereo partly specified) was 0.754

Reported composite z-score for Cc1c(-c2ccc(-c3ccc(Cl)c(Cl)c3)o2)nc(-c2ccccc2)c2c1CO[Si]2(C(C)C)C(C)C was 0.351

====

- ASSAY_PROTOCOL: MM1S myeloma cell viability, profiling panel, resazurin fluorescence, basal, 24 h, PK04 Diversity Set (AID 1174);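 also: MM1S multiple myeloma cell line; test concentration not given here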
- RECORDED_CONDITIONS: higher = more signal, called active from +8 up or from −8 down
MEASUREMENT_LABEL: z-score
# output: bare number, no unit

Reported z-score for CC(C)CNC(=O)[C@@]1(C)c2ccccc2C(=O)N(Cc2cc(F)cc(C(F)(F)F)c2)[C@H]1c1ccc(CO)cc1 was 0.919

Reported z-score for COc1ccc([Si](C)(C)[C@H]2[C@H](CCn3cc([C@H](O)c4ccccc4)nn3)O[C@@]3(C(=O)N(c4ccccc4)c4ccccc43)[C@@H]2C)cc1 was -1.82

Reported z-score for Cc1ccc(S[C@]2(C(=O)NCCN3CCOCC3)CC(=O)N(C3CCCCC3)[C@@H]2c2ccc(CO)cc2I)cc1 was 0.482

Reported z-score for O=C1O[C@@H](c2ccccc2)[C@@H](c2ccccc2)N2[C@@H](c3ccc(OCCO)cc3)[C@]3(C(=O)Nc4ccc(C#CCCO)cc43)[C@@H](C(=O)Nc3nc4ccccc4s3)[C@H]12 was 1

Reported z-score for C=CCC(OC(C)=O)[C@@H]1[C@@H](N(Cc2ccc(-c3cccc(C(F)(F)F)c3)o2)C(=O)Cc2ccc(F)cc2)c2cc(OCCCO)ccc2N1C(=O)c1ccc2ccccc2c1 (stereo partly specified) was 0.81

Reported z-score for COCCOC(=O)N1C(=O)[C@@]2(c3ccccc31)[C@H](C(N)=O)[C@H]1C(=O)O[C@H](c3ccccc3)[C@H](c3ccccc3)N1[C@@H]2c1ccc(OCCO)cc1 was 0.671
